Where do the numbers come from? From patent US20080004272A1.

- measuredOn: ASIC1a (Homo sapiens, UniProt P78348)
- experimentDescription: Two-electrode voltage clamp in Xenopus laevis oocytes (Xo), acid-induced currents
- Type: cell-based
- Parameters: expressed in transfected cells; host or cells: Xenopus laevis oocytes (nuclear microinjection of expression vector such as pcDNA3)
- conditionContext: 50 μM, Xenopus oocytes; read-out: % inh. at 50 μM (Xo)
Form field: inhibition at 50 µM (one value per entry).

Example entries and their recorded answers appear below.
COc1ccc(F)cc1-c1cc2c(c3c1CCN(C)C3)NC(=O)/C2=N\O[C@H]1O[C@@H](CO)[C@H](O)[C@@H](O)[C@@H]1O ... < 25%
Cc1nc2c3c(c(-c4ccccc4)cc2c(=O)o1)CCN(C)C3 ... < 25%
COC(=O)CCC(=O)Nc1ccc(-c2ccccc2)c2c1CN(C)CC2 ... < 25%

For reference, reported inhibition at 50 µM for CCOC(C)O/N=C1/C(=O)Nc2c1cc(-c1ccccc1)c1c2CN(C)CC1 (centres unmarked) stands at 30 to 50%

Entry "CN1CCc2c(-c3ccccc3)cc(/C(N)=N/O)c(N)c2C1" , inhibition at 50 µM reported as > 50%

The compound identified as "CN1CCc2c(-c3ccccc3)cc3c(c2C1)NC(=O)/C3=C/c1ccc(C(=O)O)cc1" registered its inhibition at 50 µM at < 25%

Per the record, "CC(=O)NN=C1C(=O)Nc2c1cc(-c1ccccc1)c1c2CN(C)CC1" has inhibition at 50 µM of < 25%

"CC(C)(C)OC(=O)N1CCc2c(-c3ccccc3)ccc(N)c2C1" yielded inhibition at 50 µM of < 25%

* * *

- measuredOn: ASIC1a (Homo sapiens, UniProt P78348)
- experimentDescription: Calcium imaging of MES-induced calcium response (FLIPR)
- Format: cell-based
- Set-up: host or cells: HEK293
- conditionContext: ASIC1a expressing HEK293 cells, MES-induced calcium response; read-out: IC50 (FLIPR)
pIC50: −log10 of the molar value.
propertyLabel: pIC50

As a guide, the following entries are already answered.
CN1CCc2c(-c3ccccc3)cc3c(=O)[nH]c(=O)[nH]c3c2C1 ... < 4.15
CN1CCc2c(-c3ccccc3)cc3c(c2C1)NC(=O)C3O (centres unmarked) ... 4.40 to 4.70
CCN1CCc2c(-c3ccccc3)cc3c(c2C1)N(CC(=O)OC)C(=O)C3=NO ... > 4.70
CN1CCc2c(-c3ccccc3)cc3c(c2C1)NC(=O)/C3=C/c1ccc(C(=O)O)cc1 ... < 4.15
CN1CCc2c(-c3ccccc3)ccc(NC(=O)OC(C)(C)C)c2C1 ... 4.15 to 4.30

The reported pIC50 value, ASIC1a (Homo sapiens, UniProt P78348), for "CCOC(=O)N1CCc2c(-c3ccccc3)ccc([N+](=O)[O-])c2C1" reads < 4.15

Tested system ASIC1a (Homo sapiens, UniProt P78348); pIC50 recorded for "CC(C)(C)OC(=O)N1CCc2c(-c3ccccc3)ccc(C(=O)O)c2C1" was < 4.15

Log: ASIC1a (Homo sapiens, UniProt P78348), compound "COc1ccc(F)cc1-c1cc(C#N)c(N)c2c1CCN(C)C2" , pIC50 = 4.40 to 4.70

* * *

- measuredOn: ASIC1a (Homo sapiens)
- Sequence (P78348 1-528): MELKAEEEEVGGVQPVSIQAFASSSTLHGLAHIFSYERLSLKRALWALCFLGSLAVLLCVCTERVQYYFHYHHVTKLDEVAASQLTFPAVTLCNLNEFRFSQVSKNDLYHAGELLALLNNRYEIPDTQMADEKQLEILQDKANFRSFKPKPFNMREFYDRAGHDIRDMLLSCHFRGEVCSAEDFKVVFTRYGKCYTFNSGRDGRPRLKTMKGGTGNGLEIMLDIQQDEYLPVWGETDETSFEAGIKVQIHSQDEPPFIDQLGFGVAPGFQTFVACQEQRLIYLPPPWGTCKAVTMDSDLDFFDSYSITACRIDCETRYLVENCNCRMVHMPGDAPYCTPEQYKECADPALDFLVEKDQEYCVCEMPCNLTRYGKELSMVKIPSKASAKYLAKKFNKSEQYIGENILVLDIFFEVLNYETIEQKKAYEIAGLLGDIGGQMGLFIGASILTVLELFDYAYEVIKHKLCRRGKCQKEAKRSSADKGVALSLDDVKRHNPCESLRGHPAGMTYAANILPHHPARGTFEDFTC
- experimentDescription: Calcium imaging of MES-induced calcium response (FLIPR)
- Assay type: cell-based
- Set-up: host or cells: HEK293
- conditionContext: ASIC1a expressing HEK293 cells, MES-induced calcium response; read-out: IC50 (FLIPR)
- Experimental: […] Confluency of cells should be 80-90% on day of plating. Cells are rinsed with 10 ml of PBS and cells are re-suspended by addition of culture medium and trituration with a 25 ml pipette. […] Following the second wash, 100 μl modified Assay Buffer is added to each well and the fluorescence is measured in FLIPR™ or FlexStation™ (Molecular Devices, USA), or any other suitable equipment known to the skilled in the art. […]
pIC50: −log10 of the molar value.
propertyLabel: pIC50

Before answering, review these 5 worked examples.
CN1CCc2c(-c3ccc(F)c(F)c3)cc3c(c2C1)NC(=O)/C3=N\O ... > 5.00
Cc1cc(-c2cc3c(c4c2CCN(C)C4)NC(=O)/C3=N/O)ccc1F ... > 5.00
CN1CCc2c(-c3cccc(O)c3)cc3c(c2C1)NC(=O)/C3=N/O ... < 4.15
CN1CCc2c(-c3ccccc3)cc3c(c2C1)NC(=O)/C3=C/c1ccccn1 ... < 4.15
CN1CCc2c(-c3ccoc3)cc3c(c2C1)NC(=O)/C3=N/O ... > 4.70

The measured pIC50 associated with "CN1CCc2c(-c3ccccc3)cc3c(c2C1)NC(=O)/C3=C/c1ccccc1O" reads < 4.15

Looking up "CN1CCc2c(-c3ccccc3)ccc(CN)c2C1" , I found its pIC50 recorded as < 4.15

The reported pIC50 of the compound "CN1CCc2c(-c3ccccc3)cc3c(c2C1)NC(=O)/C3=C/c1ccccc1" was < 4.15

* * *

Entries annotated with measured IC50
- measuredOn: ASIC1a (Homo sapiens)
- experimentDescription: Calcium imaging of MES-induced calcium response (FLIPR)
- Format: cell-based
- Parameters: host or cells: HEK293
- conditionContext: ASIC1a expressing HEK293 cells, MES-induced calcium response; read-out: IC50 (FLIPR)
- Protocol: […] Confluency of cells should be 80-90% on day of plating. Cells are rinsed with 10 ml of PBS and cells are re-suspended by addition of culture medium and trituration with a 25 ml pipette. […] Following the second wash, 100 μl modified Assay Buffer is added to each well and the fluorescence is measured in FLIPR™ or FlexStation™ (Molecular Devices, USA), or any other suitable equipment known to the skilled in the art. […]

Solved cases below.
CN1CCc2c(-c3ccccc3)cc3c(c2C1)NC(=O)/C3=C1\CCCN1C ... > 70 µM
CC(=O)c1ccc(-c2cc3c(c4c2CCN(C)C4)NC(=O)/C3=N/O)s1 ... > 70 µM
CCOC(=O)N1CCc2c(Br)ccc(N)c2C1 ... > 70 µM
COc1cc(F)ccc1-c1cc2c(c3c1CCN(C)C3)NC(=O)/C2=N/O ... < 10 µM

The value of IC50 measured for the compound "CCc1ccccc1-c1cc2c(c3c1CCN(C)C3)NC(=O)/C2=N/O" turned out to be < 10 µM

IC50 reading for "CN1CCc2c(-c3cccc(C#N)c3)cc3c(c2C1)NC(=O)/C3=N\O" : > 70 µM

The compound listed as "CN1CCc2c(-c3ccccc3)cc3c(c2C1)NC(=O)C3" shows IC50 equal to > 70 µM

Recorded result, "CN1CCc2c(-c3ccc(S(=O)(=O)N4CCOCC4)cc3)cc3c(c2C1)NC(=O)C3=NO" , IC50: > 70 µM

// "COc1ccc(NC(=O)NCc2ccc(-c3ccccc3)c3c2CN(C)CC3)cc1" : IC50 value = > 70 µM

* * *

- measuredOn: ASIC1a (Homo sapiens, UniProt P78348)
- Sequence (P78348 1-528): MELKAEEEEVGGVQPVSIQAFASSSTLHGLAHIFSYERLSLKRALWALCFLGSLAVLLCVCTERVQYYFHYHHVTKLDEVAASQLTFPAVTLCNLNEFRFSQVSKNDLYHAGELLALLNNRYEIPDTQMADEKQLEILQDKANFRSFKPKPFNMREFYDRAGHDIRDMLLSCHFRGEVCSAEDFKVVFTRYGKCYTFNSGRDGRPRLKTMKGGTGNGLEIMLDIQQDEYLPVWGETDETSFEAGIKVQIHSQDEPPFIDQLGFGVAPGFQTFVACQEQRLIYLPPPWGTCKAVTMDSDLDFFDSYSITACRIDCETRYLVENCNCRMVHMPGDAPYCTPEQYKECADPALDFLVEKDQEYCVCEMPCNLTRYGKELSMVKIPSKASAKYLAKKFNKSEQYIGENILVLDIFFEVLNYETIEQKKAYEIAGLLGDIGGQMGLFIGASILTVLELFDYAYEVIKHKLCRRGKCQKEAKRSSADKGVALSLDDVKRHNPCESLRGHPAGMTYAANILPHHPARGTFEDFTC
- experimentDescription: Calcium imaging of MES-induced calcium response (FLIPR)
- Format: cell-based
- Parameters: host or cells: HEK293
- conditionContext: ASIC1a expressing HEK293 cells, MES-induced calcium response; read-out: IC50 (FLIPR)
Documented IC50 across a set of compounds

Worked examples, 4 compounds total:
CN1CCc2c(-c3cccc([N+](=O)[O-])c3)cc3c(c2C1)NC(=O)/C3=N\O [Compound 29] ... > 70 µM
CN1CCc2c(-c3ccccc3)cc3c(c2C1)NC(=O)/C3=C/C(=O)O [Compound 91] ... > 70 µM
CN1CCc2c(-c3ccccc3)cc([N+](=O)[O-])c(N)c2C1 [Compound 155] ... 40 to 70 µM
CN1CCc2c(-c3ccc(S(=O)(=O)N4CCCCC4)cc3)cc3c(c2C1)NC(=O)C3=NO [Compound 5] ... < 25 µM

# ---- query compound ----
Consider CC(=O)Nc1c(C(=O)O)cc(-c2ccccc2)c2c1CN(C)CC2 [Compound 144] . Its measured IC50 is > 70 µM
